List of drug sensitivity score values.
- Tested on: CAL-85-1
- measurementNotes: drug sensitivity score (DSS), CellTox Green (DSS (AUC-based score)); higher = stronger drug effect (viability inhibition or cytotoxicity); extreme values may be limits of the assay
- studyConditions: incubation time: 72 h
Please reply with the number alone, leaving off any unit.

COc1cc2c(Oc3ccc4[nH]c(C)cc4c3F)ncnc2cc1OCCCN1CCCC1 :: 1.23

input: For the compound `N#Cc1ccc(C(c2ccc(C#N)cc2)n2cncn2)cc1` , what drug sensitivity score is on record?
output: 0

input: For the compound `CC[C@H](C)C(=O)O[C@H]1C[C@H](O)C=C2C=C[C@H](C)[C@H](CC[C@@H](O)C[C@@H](O)CC(=O)O)[C@H]21` , what drug sensitivity score is on record?
output: 0

input: For the compound `C=CCc1cccc(/C=N/NC(=O)CN2CCN(Cc3ccccc3)CC2)c1O` , what drug sensitivity score is on record?
output: 0

* * *

- System: CAL-85-1
- measurementNotes: drug sensitivity score (DSS), CellTox Green (DSS (AUC-based score)); higher = stronger drug effect (viability inhibition or cytotoxicity); extreme values may be limits of the assay
- studyConditions: incubation time: 72 h
recordedEndpoint: drug sensitivity score
Please reply with the number alone, leaving off any unit.

Nc1ccccc1NC(=O)c1ccc(CNC(=O)OCc2cccnc2)cc1 [Entinostat] :: 4.07
C[C@H]1C[C@@H]2[C@H]([C@@H](O)C[C@@]3(C)[C@H]2CC[C@]3(O)C(=O)CO)[C@@]2(C)C=CC(=O)C=C12 [Methylprednisolone] :: 0

input: For the molecule CC1=C(/C=C/C(C)=C/C=C/C(C)=C/C(=O)O)C(C)(C)CCC1 [Tretinoin] , what drug sensitivity score is on record?
output: 1.14

input: For the molecule CCN(CC)CCCC(C)Nc1c2ccc(Cl)cc2nc2ccc(OC)cc12 (configuration not stated) [Mepacrine] , what drug sensitivity score is on record?
output: 0

input: For the molecule COc1cc([C@@H]2c3cc4c(cc3[C@@H](O[C@@H]3O[C@@H]5CO[C@@H](c6cccs6)O[C@H]5[C@H](O)[C@H]3O)[C@H]3COC(=O)[C@H]23)OCO4)cc(OC)c1O [Teniposide] , what drug sensitivity score is on record?
output: 7.07

input: For the molecule Nc1nc2[nH]cc(CCc3ccc(C(=O)N[C@@H](CCC(=O)O)C(=O)O)cc3)c2c(=O)[nH]1 [Pemetrexed] , what drug sensitivity score is on record?
output: 0

input: For the molecule O=C(Cc1ccc(-c2ccc(OCCN3CCOCC3)cc2)cn1)NCc1ccccc1 [KX2-391] , what drug sensitivity score is on record?
output: 17.3

* * *

- Tested on: DU-4475
- measurementNotes: normalised response (% of control), CellTiter-Glo; higher = more viable cells (100 = DMSO, 0 = benzethonium chloride kill control)
- studyConditions: incubation time: 72 h
List of normalised response values.
Dear colleague, please return just the value in %, with no unit written.

Known results for compounds:
Nc1ccccc1NC(=O)c1ccc(CNC(=O)OCc2cccnc2)cc1 [Entinostat] (10000 nM) :: 5.86
CCCS(=O)(=O)Nc1ccc(F)c(C(=O)c2c[nH]c3ncc(-c4ccc(Cl)cc4)cc23)c1F [Vemurafenib] (10000 nM) :: 2.81
CC[C@@H]1C(=O)N(C)c2cnc(Nc3ccc(C(=O)NC4CCN(C)CC4)cc3OC)nc2N1C1CCCC1 [BI 2536] (1000 nM) :: 75.6
COc1cc([C@@H]2c3cc4c(cc3[C@@H](O[C@@H]3O[C@@H]5CO[C@@H](c6cccs6)O[C@H]5[C@H](O)[C@H]3O)[C@H]3COC(=O)[C@H]23)OCO4)cc(OC)c1O [Teniposide] (10000 nM) :: 4.51
CNC(=O)c1cc(Oc2ccc(NC(=O)Nc3cc(C(C)(C)C)nn3-c3ccc4ncccc4c3)c(F)c2)ccn1 [Rebastinib] (1000 nM) :: 96.7
CC[C@H](Nc1ncnc2[nH]cnc12)c1nc2cccc(F)c2c(=O)n1-c1ccccc1 [GS-1101] (10000 nM) :: 96.3

input: For the compound O=C(Cc1ccc(-c2ccc(OCCN3CCOCC3)cc2)cn1)NCc1ccccc1 [KX2-391] (10000 nM) , what normalised response is on record?
output: 58.9

input: For the compound Cc1ccc(-c2cc(C(F)(F)F)nn2-c2ccc(S(N)(=O)=O)cc2)cc1 [Celecoxib] (10000 nM) , what normalised response is on record?
output: 101

input: For the compound Nc1nc2[nH]cc(CCc3ccc(C(=O)N[C@@H](CCC(=O)O)C(=O)O)cc3)c2c(=O)[nH]1 [Pemetrexed] (10000 nM) , what normalised response is on record?
output: 93.7

input: For the compound COc1cc2c(Oc3ccc4[nH]c(C)cc4c3F)ncnc2cc1OCCCN1CCCC1 [Cediranib] (1000 nM) , what normalised response is on record?
output: 95.5

input: For the compound Cc1cnc(NC(=O)Nc2cc(Br)c(C)cc2OC[C@@H]2CNCCO2)cn1 [Rabusertib] (1000 nM) , what normalised response is on record?
output: 106

* * *

- Test system: MDA-MB-436
- measurementNotes: normalised response (% of control), CellTiter-Glo; higher = more viable cells (100 = DMSO, 0 = benzethonium chloride kill control)
- studyConditions: incubation time: 72 h
recordedEndpoint: normalised response (%)
Dear colleague, please return just the value in %, with no unit written.

input: For the compound C=CCc1cccc(/C=N/NC(=O)CN2CCN(Cc3ccccc3)CC2)c1O [PAC-1] (10000 nM) , what normalised response is on record?
output: 17.8

input: For the compound Cc1cnc(NC(=O)Nc2cc(Br)c(C)cc2OC[C@@H]2CNCCO2)cn1 [Rabusertib] (1000 nM) , what normalised response is on record?
output: 116

input: For the compound COc1cc2c(NC3CCN(C(C)C)CC3)nc(C3CCCCC3)nc2cc1OCCCN1CCCC1 [UNC0638] (10000 nM) , what normalised response is on record?
output: 7.47

input: For the compound COc1cc2nccc(Oc3ccc(NC(=O)Nc4cc(C)on4)c(Cl)c3)c2cc1OC [Tivozanib] (10000 nM) , what normalised response is on record?
output: 79.6

input: For the compound Cc1ccc(-c2cc(C(F)(F)F)nn2-c2ccc(S(N)(=O)=O)cc2)cc1 [Celecoxib] (10000 nM) , what normalised response is on record?
output: 104

input: For the compound O=C(/C=C/c1cccnc1)NCCCCC1CCN(C(=O)c2ccccc2)CC1 [Daporinad] (1000 nM) , what normalised response is on record?
output: 37.5

* * *

- Tested on: MDA-MB-453
- measurementNotes: drug sensitivity score (DSS), CellTiter-Blue viability (DSS (AUC-based score)); higher = stronger viability inhibition; extreme values may be limits of the assay
- studyConditions: incubation time: 72 h
# cutoff 2 applies to drug sensitivity score; >= gives 1.0, < gives 0.0

As a guide, the following entries are already answered.
NCCCNCCSP(=O)(O)O :: 0.0
O=C(O)C1(C(=O)O)CCC1.[NH2-].[NH2-].[Pt+2] :: 0.0
O=C(/C=C/c1cccnc1)NCCCCC1CCN(C(=O)c2ccccc2)CC1 :: 1.0
C=CC(=O)N1CCC[C@@H](n2nc(-c3ccc(Oc4ccccc4)cc3)c3c(N)ncnc32)C1 :: 1.0
N#Cc1ccc(C(c2ccc(C#N)cc2)n2cncn2)cc1 :: 0.0
Cc1ccc(-c2cc(C(F)(F)F)nn2-c2ccc(S(N)(=O)=O)cc2)cc1 :: 0.0

Please look at the following compound next.
input: Given `Nc1ccccc1NC(=O)c1ccc(CNC(=O)OCc2cccnc2)cc1` , state whether its drug sensitivity score is at least 2.
output: 1.0

* * *

- System: MDA-MB-453
- measurementNotes: normalised response (% of control), CellTiter-Glo; higher = more viable cells (100 = DMSO, 0 = benzethonium chloride kill control)
- studyConditions: incubation time: 72 h
List of normalised response values.
Dear colleague, please return just the value in %, with no unit written.

Known results for compounds:
COc1cc([C@@H]2c3cc4c(cc3[C@@H](O[C@@H]3O[C@@H]5CO[C@@H](c6cccs6)O[C@H]5[C@H](O)[C@H]3O)[C@H]3COC(=O)[C@H]23)OCO4)cc(OC)c1O [Teniposide] (1000 nM) :: 160
CC1=C(/C=C/C(C)=C/C=C/C(C)=C/C(=O)O)C(C)(C)CCC1 [Tretinoin] (10 nM) :: 94.7
COc1cc2nccc(Oc3ccc(NC(=O)Nc4cc(C)on4)c(Cl)c3)c2cc1OC [Tivozanib] (1000 nM) :: 87.7

input: For the compound C[C@H]1C[C@@H]2[C@H]([C@@H](O)C[C@@]3(C)[C@H]2CC[C@]3(O)C(=O)CO)[C@@]2(C)C=CC(=O)C=C12 [Methylprednisolone] (1 nM) , what normalised response is on record?
output: 116

input: For the compound C=CCc1cccc(/C=N/NC(=O)CN2CCN(Cc3ccccc3)CC2)c1O [PAC-1] (1000 nM) , what normalised response is on record?
output: 93.6

input: For the compound O=C(O)CCCCC(CCSCc1ccccc1)SCc1ccccc1 (configuration not stated) [CPI-613] (10 nM) , what normalised response is on record?
output: 105

input: For the compound Oc1ncc(N(CCCl)CCCl)c(O)n1 [Uracil mustard] (1 nM) , what normalised response is on record?
output: 105
